assay: Caco-2 permeability assay; assay type: in vitro ADME; conditions: human, pH 7.4; Caco-2, BA
readout_label: Papp B→A at 90 min, 10 µM (×10⁻⁶ cm/s)

[[record]]
compound = "CCc1cc(CC(C)C)cc(N2CCN(Cc3cccnn3)CC2)c1-c1nn[nH]n1"
readout_label = "Papp B→A at 90 min, 10 µM"
value_unit = "×10⁻⁶ cm/s"
observed_value = 14.7

[[record]]
compound = "CCC1CN(c2cc(CC(C)C)cc(F)c2-c2nn[nH]n2)CCN1Cc1cccnn1 (stereo not drawn)"
readout_label = "Papp B→A at 90 min, 10 µM"
value_unit = "×10⁻⁶ cm/s"
observed_value = 8.6

[[record]]
compound = "CC(C)Cc1cc(F)c(-c2nn[nH]n2)c(N2CCN(Cc3cccnn3)[C@@H](C)C2)c1"
readout_label = "Papp B→A at 90 min, 10 µM"
value_unit = "×10⁻⁶ cm/s"
observed_value = 2.4

